Exercise: state measured self-cleavage for each of the variants provided.
B1: CPEB3 Ribozyme (parent)
chain: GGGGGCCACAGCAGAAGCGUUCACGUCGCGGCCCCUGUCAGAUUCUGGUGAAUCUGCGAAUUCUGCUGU

variants of: B1; assay: self-cleavage, relative activity (ratio to wild type); higher = more cleavage; co-transcriptional
Numbers only.

Below, 6 variants whose answers are already recorded.
>>> recorded_number("G3U U62A")
0.0711
>>> recorded_number("G25C C54G")
0.162
>>> recorded_number("A8C G48C")
1.02
>>> recorded_number("C22G C34G")
0.177
>>> recorded_number("C35A U38A")
0.279
>>> recorded_number("G17A G68A")
0.843

State recorded self-cleavage for all listed variants.
1. A23U G31U
2. U49A G58C
3. G25U C32G
4. C34A C54U
5. G31C G68U
6. C7A C33U
7. C6G G17C

[out]
[0.842, 1.02, 0.158, 0.69, 0.392, 0.489, 0.0719]

# batch: return self-cleavage for each of the 2 variants below
1. A13G G31A
2. A13G G48A

[out]
1. 0.775
2. 0.968

Could you report self-cleavage for every entry in the following list?
1. G47A U64A
2. G1U G47A

[out]
1: 0.958; 2: 0.117

Batch lookup, self-cleavage per entry.
1. A42U A52U
2. G3U G30U
3. C12G U38G

[out]
1. 0.986
2. 0.0357
3. 0.126

Lab note: each variant below needs its self-cleavage filled in.
1. C7U C12A
2. C6G
3. C29G C66A
4. G37A A51U
5. G19U U20A
6. G30C U62G

[out]
0.555
0.388
0.312
0.285
0.0978
0.343

Provide each entry's self-cleavage from the list below.
1. A16G U26A
2. G50A G58A
3. C54A G58U
4. G11A G31C
5. C12G A15U
6. U62G G68A

[out]
[0.801, 1.01, 0.968, 0.155, 0.171, 0.894]

Each variant below has a recorded value; state its self-cleavage.
1. G48U G50A
2. G31U U64C
3. U36A G47C
4. G11A G37C
5. G37C C54A
6. G1U C9U
7. G31U G48C

[out]
1. 1.03
2. 0.427
3. 0.269
4. 0.196
5. 0.201
6. 0.219
7. 0.812

Items follow; give self-cleavage for each.
1. A23U C29G
2. A16C G48U
3. A8C U62G
4. G31C C39G
5. U20C C27G
6. U21C U62G

[out]
1: 0.569; 2: 0.375; 3: 0.9; 4: 0.235; 5: 0.136; 6: 0.614
